# maps each entry to its pIC50
molecular target: PIK3CA (human) (UniProt P42336)
Sequence (P42336 whole entry, looked up): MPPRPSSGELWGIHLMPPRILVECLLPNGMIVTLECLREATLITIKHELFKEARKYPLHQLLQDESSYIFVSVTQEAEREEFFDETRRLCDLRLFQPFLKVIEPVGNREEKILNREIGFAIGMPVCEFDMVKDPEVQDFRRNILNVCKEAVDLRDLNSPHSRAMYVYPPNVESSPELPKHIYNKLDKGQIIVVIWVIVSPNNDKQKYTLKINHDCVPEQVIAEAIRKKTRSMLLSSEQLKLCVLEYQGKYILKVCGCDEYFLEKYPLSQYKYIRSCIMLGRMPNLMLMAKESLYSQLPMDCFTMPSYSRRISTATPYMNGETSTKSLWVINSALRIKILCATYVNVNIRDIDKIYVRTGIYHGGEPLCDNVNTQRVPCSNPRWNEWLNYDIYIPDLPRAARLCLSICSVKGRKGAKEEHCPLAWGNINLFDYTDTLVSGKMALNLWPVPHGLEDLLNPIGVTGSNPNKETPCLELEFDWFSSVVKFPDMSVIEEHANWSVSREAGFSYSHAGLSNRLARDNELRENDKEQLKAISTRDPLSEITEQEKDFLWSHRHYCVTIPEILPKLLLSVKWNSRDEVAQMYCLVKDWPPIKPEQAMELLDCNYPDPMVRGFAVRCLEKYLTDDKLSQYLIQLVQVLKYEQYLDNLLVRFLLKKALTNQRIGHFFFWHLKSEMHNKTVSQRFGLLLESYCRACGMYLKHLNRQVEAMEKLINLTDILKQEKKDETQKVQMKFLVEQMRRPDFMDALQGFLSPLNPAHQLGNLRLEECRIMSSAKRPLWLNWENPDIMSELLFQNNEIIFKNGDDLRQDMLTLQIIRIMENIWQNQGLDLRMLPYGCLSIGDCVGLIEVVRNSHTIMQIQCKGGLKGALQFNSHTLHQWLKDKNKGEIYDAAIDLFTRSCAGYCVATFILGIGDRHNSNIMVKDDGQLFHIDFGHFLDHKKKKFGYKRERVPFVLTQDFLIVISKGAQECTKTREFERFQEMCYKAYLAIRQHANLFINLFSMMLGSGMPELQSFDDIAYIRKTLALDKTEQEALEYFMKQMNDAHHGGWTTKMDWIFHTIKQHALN
pIC50: −log10 of the molar value.

compound: CCC1CCc2ncnc(N3CCOc4ccc(-c5cnc6nc(C)[nH]c6c5)cc4C3)c2C1 (stereo not given)
pIC50: 7.30 to 8.00
--
compound: COc1cc2c(N3CCOc4ccc(-c5ccc6nc(C)[nH]c6c5)cc4C3)ncnc2cc1Br
pIC50: 6.00 to 6.60
--
compound: C[C@H]1CCc2c(ncnc2N2CCOc3ccc(-c4cnc5nc(C6CC6)[nH]c5c4)cc3C2)C1
pIC50: 7.30 to 8.00
--
compound: COc1cc2nccc(N3CCOc4ccc(-c5ccc(-c6ncc[nH]6)cc5)cc4C3)c2cc1OC
pIC50: 6.60 to 7.30
--
compound: Cc1nc2ccc(-c3ccc4c(c3)CN(c3ncnc5ccccc35)CCO4)cc2[nH]1
pIC50: 7.30 to 8.00
--
compound: CC1(C)CCc2ncnc(N3CCOc4ccc(-c5cncc(S(N)(=O)=O)c5)cc4C3)c2C1
pIC50: 6.60 to 7.30
--
compound: Cc1nc2ncc(-c3ccc4c(c3)CN(c3nc(CN(C)C)nc5c3CC(C)(C)CC5)CCO4)cc2[nH]1
pIC50: ≥ 8.00
--
compound: Cc1nc2ncc(-c3ccc4c(c3)CN(c3ncnc5c3CC[C@H](C)C5)CCO4)cc2[nH]1
pIC50: 7.30 to 8.00
--
compound: CC(CO)NS(=O)(=O)c1cc(-c2ccc3c(c2)CN(c2ncnc4c2CC(C)(C)CC4)CCO3)cnc1N (stereo not given)
pIC50: ≥ 8.00
--
compound: Cc1nc2cc(-c3ccc4c(c3)CN(c3nc(CN(C)C)nc(C)c3Cl)CCO4)ccc2[nH]1
pIC50: 6.60 to 7.30
--
compound: COc1cc2ncnc(N3CCOc4ccc(-c5ccc6nc(C)[nH]c6c5)cc4C3)c2cc1I
pIC50: 7.30 to 8.00
--
compound: COCC1CCc2c(ncnc2N2CCOc3ccc(-c4cnc5nc(C)[nH]c5c4)cc3C2)C1 (stereo not given)
pIC50: 7.30 to 8.00
--
compound: CC1(C)CCc2ncnc(N3CCOc4ccc(-c5cnc(N)c(S(C)(=O)=O)c5)cc4C3)c2C1
pIC50: 7.30 to 8.00
--
compound: Cc1nc2ccc(-c3ccc4c(c3)CN(c3ccnc(N)n3)CCO4)cc2[nH]1
pIC50: 6.00 to 6.60
--
compound: Cc1nc2ncc(-c3ccc4c(c3)CN(c3nc(CN5CCCCC5)nc5c3CC(C)(C)CC5)CCO4)cc2[nH]1
pIC50: ≥ 8.00
--
compound: CCNc1nc2ccc(-c3ccc4c(c3)CN(c3ncnc(Nc5ccc(OC)cc5)c3C)CCO4)cc2[nH]1
pIC50: 7.30 to 8.00
--
compound: Cc1nc(Nc2ccccc2)c(C)c(N2CCOc3ccc(-c4ccc5nc[nH]c5c4)cc3C2)n1
pIC50: 6.60 to 7.30
--
compound: Cc1nc2cc(-c3ccc4c(c3)CN(c3nc(CN(C)C)nc(C)c3Cc3ccc(F)cc3)CCO4)cnc2[nH]1
pIC50: ≥ 8.00
--
compound: CC[C@H]1CCc2c(ncnc2N2CCOc3ccc(-c4cnc5nc(NC(=O)OC)[nH]c5c4)cc3C2)C1
pIC50: ≥ 8.00
--
compound: C=C[C@H]1CCCc2c(ncnc2N2CCOc3ccc(-c4cnc5nc(C)[nH]c5c4)cc3C2)C1
pIC50: 7.30 to 8.00
--
compound: Cc1nc2cc(-c3ccc4c(c3)CN(c3nc([C@H]5CCCN5)nc5c3CC(C)(C)CC5)CCO4)cnc2[nH]1
pIC50: ≥ 8.00
--
compound: Cc1nc2ccc(-c3ccc4c(c3)CN(c3ncnc5cc(I)ccc35)CCO4)cc2[nH]1
pIC50: 7.30 to 8.00
--
compound: CCCc1c(C)nc(CN(C)C)nc1N1CCOc2ccc(-c3ccc4nc(C)[nH]c4c3)cc2C1
pIC50: 7.30 to 8.00
--
compound: Cc1nc2ccc(-c3ccc4c(c3)CN(c3nc(CNC5CC5)nc5c3CC(C)(C)CC5)CCO4)cc2[nH]1
pIC50: 7.30 to 8.00
--
compound: CCNc1nc2ccc(-c3ccc4c(c3)CN(c3cc(C)nc5cc(OC)ccc35)CCO4)cc2[nH]1
pIC50: ≥ 8.00
--
compound: CNS(=O)(=O)c1cc(-c2ccc3c(c2)CN(c2ncnc4c2CC(C)(C)C=C4)CCO3)cnc1N
pIC50: 7.30 to 8.00
--
compound: Cc1nc2ccc(-c3ccc4c(c3)CN(c3ncnc5c3CCC(C)C5)CCO4)cc2[nH]1 (stereo not given)
pIC50: 7.30 to 8.00
--
compound: Cc1nc2ccc(-c3ccc4c(c3)CN(c3nc(CN5CC[C@@H](F)C5)nc5c3CC(C)(C)CC5)CCO4)cc2[nH]1
pIC50: 7.30 to 8.00
--
compound: CC1(C)CCc2ncnc(N3CCOc4ccc(-c5cnc(N)nc5)cc4C3)c2C1
pIC50: 6.00 to 6.60
--
compound: COC(=O)Nc1nc2ccc(-c3ccc4c(c3)CN(c3ncnc5ccc(OC)cc35)CCO4)cc2[nH]1
pIC50: 7.30 to 8.00
--
compound: CCNS(=O)(=O)c1cc(-c2ccc3c(c2)CN(c2ncnc4c2CC(C)(C)CC4)CCO3)cnc1N
pIC50: 7.30 to 8.00
--
compound: CN(C)Cc1nc2c(c(N3CCOc4ccc(-c5cnc6nc(C7CC7)[nH]c6c5)cc4C3)n1)CC(C)(C)CC2
pIC50: ≥ 8.00
--
compound: CC1(C)CCc2ncnc(N3CCOc4ccc(-c5cnc(Cl)c(CS(C)(=O)=O)c5)cc4C3)c2C1
pIC50: 6.00 to 6.60
--
compound: Cc1nc2ccc(-c3ccc4c(c3)CN(c3ncnc5c(Br)cccc35)CCO4)cc2[nH]1
pIC50: 6.60 to 7.30
--
compound: Cc1nc2c(c(N3CCOc4ccc(-c5cnc(N)c(S(=O)(=O)N(C)C)c5)cc4C3)n1)CC(C)(C)CC2
pIC50: 6.60 to 7.30

Measured values drawn from the Kinase Knowledgebase extract (Sharma et al. 2016) for this set.
